Measured values drawn from patent EP2386565A2 for this set.

# tested-on: T1, CXCR1 (human, UniProt P25024 1-350)
# T1 construct: whole, on cells
# T1 sequence (looked up): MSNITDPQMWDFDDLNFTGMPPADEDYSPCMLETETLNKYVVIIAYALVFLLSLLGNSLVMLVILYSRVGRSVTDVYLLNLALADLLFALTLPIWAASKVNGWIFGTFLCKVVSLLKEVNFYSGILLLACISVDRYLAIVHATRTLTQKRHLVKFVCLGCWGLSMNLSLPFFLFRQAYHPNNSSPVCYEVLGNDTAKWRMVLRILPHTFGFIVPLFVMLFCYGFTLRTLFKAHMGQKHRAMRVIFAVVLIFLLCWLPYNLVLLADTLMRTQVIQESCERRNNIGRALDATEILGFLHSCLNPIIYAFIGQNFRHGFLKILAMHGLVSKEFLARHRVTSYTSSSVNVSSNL
# test-details: biotin-labeled peptide on receptor-expressing cell lines, 125I-streptavidin
No end group written: not given here. *: point of attachment. Biotin = O=C1N[C@H]2[C@H](CS[C@H]2CCCCC(=O)*)N1
reported-endpoint: Kd

Prompt: What value of Kd has been reported for the following binder? Biotin-CLDPKQKWIQC (cysteine pairing not given here, also called biotinylated peptide) [N-terminal biotin conjugate of the sequence n'-CLDPKQKWIQC-c']
Response: > 10 µM
